Origin of measurements: ChEMBL document CHEMBL1158411

biological target: Cathepsin D (Homo sapiens)
Sequence (P07339 65-162 limits assumed): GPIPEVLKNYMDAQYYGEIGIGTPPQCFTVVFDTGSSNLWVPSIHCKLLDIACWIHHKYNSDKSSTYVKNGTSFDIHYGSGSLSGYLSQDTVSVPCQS
Sequence (P07339 169-412 limits assumed): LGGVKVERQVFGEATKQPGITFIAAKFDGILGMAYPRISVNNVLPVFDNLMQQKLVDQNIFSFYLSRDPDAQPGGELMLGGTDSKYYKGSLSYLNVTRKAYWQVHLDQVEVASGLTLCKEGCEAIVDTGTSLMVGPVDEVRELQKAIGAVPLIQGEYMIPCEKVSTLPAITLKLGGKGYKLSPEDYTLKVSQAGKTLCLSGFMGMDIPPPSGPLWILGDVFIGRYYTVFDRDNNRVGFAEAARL
Catalogue of molecules with associated IC50

Example entries begin here.
Problem: Fill in: IC50 of CCNC[C@@H](O)[C@H](Cc1ccccc1)NC(=O)c1cc2c3c(cn(CC)c3c1)CCS(=O)(=O)N2C is ___
Result: 19.5 µM

Problem: Fill in: IC50 of CCc1cn2c3c(cc(C(=O)N[C@@H](Cc4ccccc4)[C@H](O)CNCCC(F)(F)F)cc13)N(C)S(=O)(=O)CC2 is ___
Result: 0.89 µM

Problem: Fill in: IC50 of CCc1cn2c3c(cc(C(=O)N[C@@H](Cc4ccccc4)[C@H](O)CNC4CC4)cc13)OS(=O)(=O)CC2 is ___
Result: 2.97 µM

Problem: Fill in: IC50 of CC[C@@H](C)NC[C@@H](O)[C@H](Cc1ccccc1)NC(=O)c1cc2c3c(cn(CC)c3c1)CCS(=O)(=O)N2C is ___
Result: 1.19 µM

Problem: Fill in: IC50 of CCNC[C@@H](O)[C@H](Cc1ccccc1)NC(=O)c1cc2c3c(c1)c(CC)cn3CCS(=O)(=O)N2C is ___
Result: 36.3 µM

Others:
Problem: Fill in: IC50 of CCc1cn2c3c(cc(C(=O)N[C@@H](Cc4ccccc4)[C@H](O)CNCC4CCOCC4)cc13)OS(=O)(=O)CC2 is ___
Result: 0.13 µM
